Reference source for all entries: ChEMBL document CHEMBL3885861

- Species: Rattus norvegicus
- protocolDescription: Open TG-GATES - Regimen: Single
- Format: toxicity, organism-based, Sprague-Dawley
- Parameters: regimen Single, gender Male, age 6 weeks
- condition: in vivo, po, 0 mg/kg, 6 h, tissue Plasma, route gavage, dose level Control
# Lookup of reported IP keyed by entry
Numeric only. Scale: mg/dL

Worked examples, 3 molecules total:
1) C=C(C)[C@H]1Cc2c(ccc3c2O[C@@H]2COc4cc(OC)c(OC)cc4[C@@H]2C3=O)O1 : 9
2) OCCN1CCN(CCCN2c3ccccc3Sc3ccc(C(F)(F)F)cc32)CC1 : 10
3) C[C@H]1C(=O)O[C@@H]2CCN3CC=C(COC(=O)[C@](C)(O)[C@]1(C)O)[C@H]23 : 9

# IP of CCOC(=O)C(C)(C)Oc1ccc(Cl)cc1 [CLOFIBRATE] = 8.8

Please fill in: IP reported for Cc1ccc2cc3c(ccc4ccccc43)c3c2c1CC3 = 9.9

Per the record, Cn1cc[nH]c1=S has IP of 9.7

Documented IP of C[C@H]1O[C@H](O[C@H]2[C@H](O)[C@@H](O)[C@@H](O[C@H]3[C@H](O)[C@@H](O)C(O)O[C@@H]3CO)O[C@@H]2CO)[C@H](O)[C@@H](O)[C@@H]1N[C@H]1C=C(CO)[C@@H](O)[C@H](O)[C@H]1O (some centres undefined) : 10.4

What the record says about O=[N+]([O-])c1ccc(O)c([N+](=O)[O-])c1 : IP is 9.3

Entry Cc1cccc(C)c1OCC(C)N (centres undefined) ; IP = 9.2
